# assayedTarget: JAK2 (Homo sapiens, UniProt O60674)
# Sequence (O60674 826-1132 limits assumed): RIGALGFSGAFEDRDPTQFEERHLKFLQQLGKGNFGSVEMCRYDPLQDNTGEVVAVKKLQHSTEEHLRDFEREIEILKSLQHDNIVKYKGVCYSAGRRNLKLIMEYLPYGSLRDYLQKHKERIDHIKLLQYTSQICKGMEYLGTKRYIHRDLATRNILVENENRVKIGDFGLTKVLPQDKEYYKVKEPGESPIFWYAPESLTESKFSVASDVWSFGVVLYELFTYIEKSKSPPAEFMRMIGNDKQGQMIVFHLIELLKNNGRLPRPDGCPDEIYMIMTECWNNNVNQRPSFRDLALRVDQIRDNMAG
# assayExplanation: JAK2 kinase inhibition, ADP-Glo luminescence assay
# Format: biochemical
# Set-up: purchased Carna 08-045
# studyConditions: substrate IGF1Rtide
experimentalEndpoint: IC50 (nM)

Completed entries (count: 6):
molecule	assayedTarget	IC50 [nM]
CCc1cc(O)c(F)cc1-c1ccc2c(-c3nc(CNC4CCN(C)C4)c[nH]3)n[nH]c2c1 (stereo not drawn)	JAK2 (Homo sapiens, UniProt O60674)	0.63
CCc1cc(O)c(F)cc1-c1ccc2c(-c3nc(CN4CCC(C#N)CC4)c[nH]3)n[nH]c2c1	JAK2 (Homo sapiens, UniProt O60674)	0.85
CCc1cc(O)c(F)cc1-c1ccc2c(-c3nc(CNC(=O)N4CC[C@H](O)C4)c[nH]3)n[nH]c2c1	JAK2 (Homo sapiens, UniProt O60674)	0.68
CCc1cc(O)c(F)cc1-c1ccc2c(-c3nc(CNc4ccccn4)c[nH]3)n[nH]c2c1	JAK2 (Homo sapiens, UniProt O60674)	1.4
CCc1cc(O)c(F)cc1-c1ccc2c(-c3nc(CNC(=O)N(C)CCO)c[nH]3)n[nH]c2c1	JAK2 (Homo sapiens, UniProt O60674)	0.5
CCc1cc(O)c(F)cc1-c1ccc2c(-c3nc(CNC(=O)OCCC#N)c[nH]3)n[nH]c2c1	JAK2 (Homo sapiens, UniProt O60674)	6.3

a = CCc1cc(O)c(F)cc1-c1ccc2c(-c3nc(CN(C)C(=O)N4CC[C@@H](O)C4)c[nH]3)n[nH]c2c1
b = CCc1cc(O)c(F)cc1-c1ccc2c(-c3nc(CNCC4CC4)c[nH]3)n[nH]c2c1
Query: Which value of IC50 is greater, the one for a or the one for b ? Please respond with the label that marks your chosen entry.
Result: b

P = CCc1cc(O)c(F)cc1-c1ccc2c(-c3nc(CNC(=O)c4cnn(C)c4)c[nH]3)n[nH]c2c1
Q = CCc1cc(O)c(F)cc1-c1ccc2c(-c3nc(CNC(=O)C(C)C)c[nH]3)n[nH]c2c1
R = CCc1cc(O)c(F)cc1-c1ccc2c(-c3nc(CNC(=O)c4cnc(N5CCOCC5)cn4)c[nH]3)n[nH]c2c1
S = CCc1cc(O)c(F)cc1-c1ccc2c(-c3nc(CNS(=O)(=O)CC)c[nH]3)n[nH]c2c1
Query: # rank by IC50, ascending (min first) Provide the ranking by listing each label in its place in the requested order.
Result: Q, P, R, S
(Q: 0.641 nM, P: 1 nM, R: 1.49 nM, S: 3.3 nM)

I = CCc1cc(O)c(F)cc1-c1ccc2c(-c3nc(CN4CCOCC4)c[nH]3)n[nH]c2c1
II = CCc1cc(O)c(F)cc1-c1ccc2c(-c3nc(CNC(=O)N4CCOCC4)c[nH]3)n[nH]c2c1
Query: Pick one, I or II : lowest reported IC50. Please respond with the label that marks your chosen entry.
Result: II

---

# assayedTarget: UniProt:P29597
# Sequence (P29597 871-1187 limits assumed): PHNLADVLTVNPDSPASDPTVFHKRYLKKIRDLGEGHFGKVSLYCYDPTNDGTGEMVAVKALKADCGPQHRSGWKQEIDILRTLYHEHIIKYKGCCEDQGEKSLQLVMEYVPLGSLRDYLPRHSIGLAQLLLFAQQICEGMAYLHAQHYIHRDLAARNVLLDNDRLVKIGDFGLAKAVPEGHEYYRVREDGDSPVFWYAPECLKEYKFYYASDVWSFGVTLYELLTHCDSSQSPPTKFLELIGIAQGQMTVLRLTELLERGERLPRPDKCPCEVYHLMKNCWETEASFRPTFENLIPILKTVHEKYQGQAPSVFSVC
# assayExplanation: TYK2 kinase inhibition, ADP-Glo luminescence assay
# Assay type: biochemical
# studyConditions: substrate IRS1
experimentalEndpoint: IC50 (nM)

Completed entries (count: 3):
compound	result
CCc1cc(O)c(F)cc1-c1ccc2c(-c3nc(CN4CCC(C#N)C4)c[nH]3)n[nH]c2c1 (centres unmarked)	6.1
CCc1cc(O)c(F)cc1-c1ccc2c(-c3nc(CNS(=O)(=O)CC)c[nH]3)n[nH]c2c1	6.4
CCc1cc(O)c(F)cc1-c1ccc2c(-c3nc(CNC4CCC4)c[nH]3)n[nH]c2c1	17.3

I = CCc1cc(O)c(F)cc1-c1ccc2c(-c3nc(CN4CC[C@H](O)C4)c[nH]3)n[nH]c2c1
II = CCc1cc(O)c(F)cc1-c1ccc2c(-c3nc(CNC(=O)N4CCC(O)CC4)c[nH]3)n[nH]c2c1
III = CCc1cc(O)c(F)cc1-c1ccc2c(-c3nc(CN(C)C(=O)C4CC4)c[nH]3)n[nH]c2c1
Query: # rank by IC50, ascending (min first) Provide the ranking by listing each label in its place in the requested order.
Result: II, I, III
